Reported values of MIC for individual entries
Tested on: Mycobacterium tuberculosis
measurement-notes: Antitubercular activity against actively growing Mycobacterium tuberculosis H37Rv by microplate alamar blue assay
Type: functional
Provide only the numeric value, understood in µM.

A selection of reference data follows.
Which MIC value is on record for "Cc1ccc(C[N+](C)(C)CCCN2c3ccccc3Sc3ccccc32)cc1" ?
9.9

Report MIC for "C[N+](C)(CCCN1c2ccccc2Sc2ccc(Cl)cc21)Cc1ccc(Cl)cc1" please.
6.06

# next compound below
If you can, please state the reported MIC value of "C[N+](C)(CCCN1c2ccccc2Sc2ccc(Cl)cc21)Cc1ccc(F)cc1" .
7.6

* * *

Tested on: Mycobacterium tuberculosis
measurement-notes: Antitubercular activity against actively growing Mycobacterium tuberculosis H37Rv by microplate alamar blue assay
Format: functional
Labelling field: enter Condition met if recorded MIC is less than 7 µM. Enter Condition not met if it equals or exceeds that cut-off.

Hello, I'm reviewing records and need to know if MIC of "C[N+](C)(CCCN1c2ccccc2Sc2ccc(Cl)cc21)Cc1ccccc1Cl" is below 7 µM. Could you check?
Condition met

Find out if reported MIC for "C[N+](C)(CCCN1c2ccccc2Sc2ccc(Cl)cc21)Cc1cccc(Cl)c1" is less than 7 µM
Condition met

MIC strictly < 7 µM for this molecule? CC(CN1c2ccccc2Sc2ccccc21)[N+](C)(C)Cc1ccc([N+](=O)[O-])cc1 (stereo not given)
Condition not met

Is 7 µM strictly greater than the molecule's reported MIC? molecule: "C[N+](C)(CCCN1c2ccccc2Sc2ccc(C(F)(F)F)cc21)Cc1cccc(Cl)c1"
Condition met

Is MIC of "C[N+](C)(CCCN1c2ccccc2Sc2ccc(C(F)(F)F)cc21)Cc1ccc(F)cc1" strictly below 7 µM?
Condition met

Further cases:
MIC strictly < 7 µM for this molecule? "COc1ccc(C[N+](C)(C)CCCN2c3ccccc3Sc3ccc(Cl)cc32)cc1"
Condition not met

Quick check: does "C[N+](C)(CCCN1c2ccccc2Sc2ccc(Cl)cc21)Cc1ccccc1" have MIC under 7 µM?
Condition not met

Is 7 µM strictly greater than the molecule's reported MIC? molecule: "C[N+](C)(CCCN1c2ccccc2Sc2ccccc21)Cc1ccc(F)cc1"
Condition not met

MIC strictly < 7 µM for this molecule? Cc1ccc(C[N+](C)(C)C(C)CN2c3ccccc3Sc3ccccc32)cc1 (stereo not given)
Condition not met
